Parameter: GI50. Scope: all listed entries.
System: SNB-75
ASSAY METHOD TEXT: NCI tumour cell line growth inhibition, 48 h
Calls of active or inactive are those of the source. No stated cut-off is given here; in the data, active = GI50 up to about 1.1 µM and inactive = higher.

Consider the worked cases shown below.
O=S(O)CCCCCSSc1ccc(Cl)cc1 ... 23.1 µM (inactive)
COc1cc2oc(=O)ccc2cc1C(=O)CC(C)C ... 78.7 µM (inactive)
COC(=O)c1cc(C)ccc1/C=C1\Cc2cccc(C)c2C1=O ... 35.1 µM (inactive)

Ask | Requested field: GI50. Item: O=c1c2ccccc2c(=O)c2c1cc(Cl)c1[nH]c3c([nH]c12)c(Cl)cc1c(=O)c2ccccc2c(=O)c13
Reply | > 100 µM (inactive)

Ask | Requested field: GI50. Item: COc1c(C)cc(O)cc1C=O
Reply | > 100 µM (inactive)

Ask | Requested field: GI50. Item: CN(C)c1n/c(=N/c2ccc3c(c2)OCO3)ss1
Reply | 9.71 µM (inactive)

Ask | Requested field: GI50. Item: [N-]=[N+]=Nc1cc(=O)n2c3c(cccc13)CCC2
Reply | > 100 µM (inactive)

Ask | Requested field: GI50. Item: CCN(CC)C(=O)CNC(=O)OC(C)(C)C
Reply | > 100 µM (inactive)

Ask | Requested field: GI50. Item: CC1OC(OC2C(O)COC(OC3C(C)OC(OC4C(OC(=O)[C@]56CCC(C)(C)C[C@@H]5C5=CCC7[C@@]8(C)C[C@H](O)[C@H](OC9OC(CO)C(O)C(O)C9O)[C@@](C)(CO)[C@@H]8CC[C@@]7(C)[C@]5(C)CC6)OCC(O)C4O)C(O)C3O)C2O)C(O)C(O)C1O (some centres undefined)
Reply | 20 µM (inactive)

Ask | Requested field: GI50. Item: CC(=O)NC1=C(NCCN(C)C)C(=O)c2ccccc2C1=O
Reply | 25.5 µM (inactive)

Ask | Requested field: GI50. Item: O=C(O)CC1NCc2cc3ccccc3nc21 (centres undefined)
Reply | > 100 µM (inactive)

Ask | Requested field: GI50. Item: C(/C=N/N=C1NCCCN1)=N\N=C1NCCCN1
Reply | > 100 µM (inactive)

Ask | Requested field: GI50. Item: CCCCc1ccc(Nc2nc(O)c3ncn(COCCO)c3n2)cc1
Reply | > 100 µM (inactive)

Ask | Requested field: GI50. Item: N=C(N)NS(=O)(=O)c1ccc(NC(=O)c2ccc(Cl)c3c(Nc4ccc(S(=O)(=O)N=C(N)N)cc4)c4ccccc4nc23)cc1
Reply | 24.5 µM (inactive)

Ask | Requested field: GI50. Item: O=C(/C=C/c1ccc(/C=C/C(=O)c2ccc(O)cc2)cc1)c1ccc(O)cc1
Reply | > 100 µM (inactive)
